system: SN12C renal; assay: NCI-60 one-dose screen, 48 h (100 = growth as untreated, 0 = no growth, -100 = all killed); conditions: 10 µM unless noted
About 83,000 compounds went through this panel and 20% of them were active in at least one assay; those are over-represented in the sample as a whole.
observed property: growth (%)

* CC/C(=C(\c1ccc(OCCN2CCCCCCC2)cc1)c1ccc(OC(=O)C2CCCCC2)cc1)c1ccc(Cl)cc1 | 93.6
* Cc1cc(N2CCCC2)nc(N(CCCNc2ccnc3cc(Cl)ccc23)Cc2ccc3c(c2)OCO3)n1 | 29.3
* CCOc1ccc(N=C(C)Nc2ccc(OCC)cc2)cc1 | 102

* * *

test system: HS 578T breast; experiment: NCI-60 one-dose screen, 48 h; conditions: 10 µM
This is part of a sample that, as a whole, favours compounds with a hit. Of some 83,000 tested, about 20% had one in any assay. Activity calls are given as the source filed them. Rule for the calls: active = growth percent below 10; inactive = the rest.
Classes used: active, inactive

* CC12O[C@H](C[C@@H](OC(=O)CCC(=O)O)[C@H]1O)n1c3ccccc3c3c4c(c5c6ccccc6n2c5c31)C(=O)NC4=O | inactive
* Cc1cc2c(-c3nc4ccccn4c3Nc3cccc4ccccc34)c(O)c(O)cc2c(O)c1-c1c(C)cc2c(-c3nc4ccccn4c3Nc3cccc4ccccc34)c(O)c(O)cc2c1O | inactive
* COc1ccc(Nc2ncccc2NC(=O)c2cn(Cc3cccc(Oc4ccccc4)c3)nn2)cc1 | inactive
* CC(=O)OCCC/C(=C\c1ccc2ccccc2c1)[N+](=O)[O-] | active
* COC(=O)[C@@H](OC)[C@@H]1Cc2cc3cc(OC4CC(OC5CC(O)C(O)C(C)O5)C(O)C(C)O4)c(C)c(O)c3c(O)c2C(=O)[C@H]1OC1CC(OC2CC(OC3CC(C)(O)C(O)C(C)O3)C(O)C(C)O2)C(O)C(C)O1 (stereo not given in full) | active
* CN1CCN(c2nc(NCCNc3ccnc4cc(Cl)ccc34)c3ccccc3n2)CC1 | inactive
* Nc1nc(=S)c2ncn(C3OC(COC(=O)c4ccc(Cl)cc4)C(OC(=O)c4ccc(Cl)cc4)C3OC(=O)c3ccc(Cl)cc3)c2[nH]1 (stereo not given) | active
* CCc1ccc(/C=C/c2ccc(O)c3ncccc23)[n+](C)c1 | inactive
* COc1cnc2c(c1)C(=O)c1c-2n(CCCNC2=NCCS2)c(=O)c2cc(Cl)ccc12 | inactive
* CCCCCCCC(=O)SCC/C=C/[C@@H]1CC(=O)NCc2nc(co2)C2=N[C@@](C)(CS2)C(=O)N[C@@H](C(C)C)C(=O)O1 | active
* COC(=O)C1CCc2sc3ncnc(Nc4cn[nH]c4C(=O)Nc4ccc(CN5CCN(C)CC5)cc4)c3c21 (stereo not given) | active
* O=c1nc2c(-c3nc4ccccc4s3)n[nH]n2c2sc3c(c12)CCCC3 | inactive
* COc1cc(NCCN(CC(C)C)CC(C)C)c2ncc(C)cc2c1 | inactive
* COC(=O)[C@H](C)NC(=O)[C@@H](OC)[C@@H]1Cc2cc3cc(OC4CC(OC5CC(O)C(O)C(C)O5)C(O)C(C)O4)c(C)c(O)c3c(O)c2C(=O)[C@H]1OC1CC(OC2CC(OC3CC(C)(O)C(O)C(C)O3)C(O)C(C)O2)C(O)C(C)O1 (stereo not given in full) | active
* Nc1c(Cl)cccc1[N+](=O)[O-] | inactive
* CCCC(=O)OCC1OC(n2cnc3c(=S)nc[nH]c32)C(OC(=O)CCC)C1OC(=O)CCC (stereo not given) | inactive
* COc1ccc(C2CC(=O)c3c(O)c(OC)c(OC)c(OC)c3O2)c(O)c1 (stereo not given) | inactive
* COc1ccc2c(CCCCC(c3ccccc3)c3ccccc3)c3[n+](cc2c1OC)CCc1cc2c(cc1-3)OCO2 | active
* COC(=O)C1=C(C(=O)OC)C23C=C(C)C1C2=C(C)C1(CC1)[C@@](C)(O)C3=O (stereo not given in full) | inactive
* CC(C)(C)CC(C)(C)Nc1c(-c2c(O)c3ccccc3oc2=O)nc2c(Cl)cc(C(F)(F)F)cn12 | inactive
* O=C(Nc1ccc(C(=O)Nc2ccc(C3=NCCCN3)cc2)cc1)Nc1ccc(C2=NCCCN2)cc1 | inactive
* CCCCn1c(C)nc2ccc(Nc3nc(N4CCN(C)CC4)nc4nc[nH]c34)cc21 | inactive
* Oc1ccc(/C=N/Nc2nnc(N/N=C/c3ccc(O)cc3O)c3ccccc23)c(O)c1 | active
* NC(=O)c1n[nH]n2c1nc(=O)c1c3c(sc12)CCCC3 | inactive
* CO[C@H](C(=O)N[C@@H](CCCCNC(=O)OCc1ccccc1)C(=O)OC(C)(C)C)[C@@H]1Cc2cc3cc(OC4CC(OC5CC(O)C(O)C(C)O5)C(O)C(C)O4)c(C)c(O)c3c(O)c2C(=O)[C@H]1OC1CC(OC2CC(OC3CC(C)(O)C(O)C(C)O3)C(O)C(C)O2)C(O)C(C)O1 (stereo not given in full) | active

* * *

Item-by-item account of growth
system: MOLT-4 leukemia; assay: NCI-60 one-dose screen, 48 h (100 = growth as untreated, 0 = no growth, -100 = all killed); details: 10 µM unless noted
This is part of a sample that, as a whole, favours compounds with a hit. Of some 83,000 tested, about 20% had one in any assay.
observed property: growth (%)

- C[C@H]1Oc2cc(cnc2N)-c2c(nn(C)c2C#N)CN(C)C(=O)c2ccc(F)cc21: 70.5
- Nc1c2c(c(O)c3c1=C(CO)C=N3)=NCCS2: -24.7
- C=CCC(=O)N[C@H](/C=C/C(=O)O)Cc1ccc(-c2cc(Cl)cc(Cl)c2)cc1: 91.2
- COc1ccc(C2CC(=O)c3c(O)c(OC)c(OC)c(OC)c3O2)c(O)c1 (centres undefined): 22.6

* * *

Test system: RPMI-8226 leukemia
Test: NCI-60 one-dose screen, 48 h
Details: 10 µM unless noted
Method: Growth inhibition of the RPMI-8226 human tumor cell line is measured as a screen for anti-cancer activity. Cells are grown in 96 well plates and exposed to the test compound for 48 hours. Compounds are tested at a single concentration, which is 10^-5 M for most compounds. The reported endpoint is percent growth (GI% or GIPRCNT), where numbers from 0 - 100% represent growth inhibition, and numbers from -100% - 0 represent cell death. For example, a value of 40 represents 60% growth inhibition. […]
The panel holds about 83,000 compounds, 20% with a hit somewhere; the sample as a whole holds those more often. The source made the active and inactive calls. The calls were made as follows: active = growth percent below 10; inactive = the rest.
Possible outcomes: true (1) for active, false (0) for inactive

• CCN(CC)CCCC(C)Nc1cc(-c2ccc(C(F)(F)F)cc2)c(C#N)c2nc3ccccc3n12 (centres undefined) = true (1)
• COc1ccc2c(OCc3nnc4ccc(-c5ccccc5)nn34)ccnc2c1 = false (0)
• Cc1cc([C@@H](C)Nc2ccccc2C(=O)O)c2nc(N3CCOCC3)cc(=O)n2c1 = false (0)
• O=C(Nc1cccc([N+](=O)[O-])c1)c1ccc(Cl)c(Cl)c1 = false (0)

* * *

system: SNB-19 CNS; experiment: NCI-60 one-dose screen, 48 h (100 = growth as untreated, 0 = no growth, -100 = all killed); conditions: 10 µM unless noted
The panel holds about 83,000 compounds, 20% with a hit somewhere; the sample as a whole holds those more often. Calls of active or inactive are those of the source. Rule for the calls: active = growth percent below 10; inactive = the rest.
Each item that follows carries a reported growth.
observed property: growth

* CC(=O)Nc1cccc(-n2c(=O)n(C3CC3)c(=O)c3c(Nc4ccc(I)cc4F)n(C)c(=O)c(C)c32)c1 | 48.3% (inactive)
* CCCCCCCC(=O)SCC/C=C/[C@@H]1CC(=O)NCc2cc(ccn2)C2=N[C@@](C)(CS2)C(=O)N[C@@H](C(C)C)C(=O)O1 | 10.2% (inactive)
* C#Cc1cccc(Nc2ncnc3cc4c(cc23)OCCOCCOCCO4)c1 | 60.9% (inactive)
* CNC(=O)c1cc(Oc2ccc3nc(NC(=O)Nc4ccc(Cl)c(C(F)(F)F)c4)sc3c2)ccn1 | 33.5% (inactive)
* C=C1C(=O)O[C@H]2[C@H]1CC/C(Cn1cc(-c3cc(C)c(C)cc3C)nn1)=C\CC[C@@]1(C)O[C@@H]21 | 41.8% (inactive)

* * *

Test system: NCI/ADR-RES ovarian
Experiment: NCI-60 one-dose screen, 48 h
Conditions: 10 µM unless noted
Description: Growth inhibition of the NCI/ADR-RES human […] tumor cell line is measured as a screen for anti-cancer activity. Cells are grown in 96 well plates and exposed to the test compound for 48 hours. Compounds are tested at a single concentration, which is 10^-5 M for most compounds. The reported endpoint is percent growth (GI% or GIPRCNT), where numbers from 0 - 100% represent growth inhibition, and numbers from -100% - 0 represent cell death. For example, a value of 40 represents 60% growth inhibition. […]
This is part of a sample that, as a whole, favours compounds with a hit. Of some 83,000 tested, about 20% had one in any assay. Calls of active or inactive are those of the source. The calls were made as follows: active = growth percent below 10; inactive = the rest.
Possible outcomes: yes for active, no for inactive

* COC(=O)[C@]12CC[C@@H](C)[C@H](C)[C@@H]1C1=CC[C@@H]3[C@@]4(C)C(c5cnco5)=C[C@@](C)(CO)C4=CC[C@@]3(C)[C@]1(C)CC2 | no
* CC1(COc2ccc3c(c2)ncn3-c2ccc3cccc(N4CCC(N)CC4)c3n2)COC1 | no
* CCc1nc2cc(/C=C/C(=O)NO)ccc2c(=O)n1CCc1ccc(F)cc1 | yes
* CCN1CCN(CCCN(C[C@H]2Cc3ccccc3CN2)[C@H]2CCCc3cccnc32)CC1 | no
* O=C(O)C1(Cc2cccc(Nc3nccs3)n2)CCC(Oc2cccc(Cl)c2F)CC1 (stereo not drawn) | no
* CCc1ccc(C2=C(O)C(=O)C(c3ccc(CC)cc3)=C(O)C2=O)cc1 | yes
* CC(=O)C1=C(C)NC(SCc2nnc(-c3ccc(C)cc3)o2)=NC1c1ccc(F)cc1 (stereo not drawn) | no
* COc1ccc(Br)cc1NC(=O)Nc1cccc2c1ccn2Cc1ccnc(N)c1 | no
* CCN1CCN(Cc2ccc(NC(=O)Nc3nc(-c4cc(OC)c(OC)c(OC)c4)cs3)cc2C(F)(F)F)CC1 | yes
* CCCCN1CCCC[C@@H]1C(=O)N[C@H](C(=O)N(C)[C@H](CCc1nc(C(=O)N[C@@H](Cc2ccccc2)C[C@H](C)C(=O)OC)cs1)C(C)C)C(C)C | no
* Cc1cn(-c2cc(NC(=O)c3ccc(C)c(Nc4nccc(-c5cnccn5)n4)c3)cc(C(F)(F)F)c2)cn1 | no
* Cc1cccc(Cl)c1NC(=O)c1cnc(Nc2cc(N3CCOCC3)cc(S(C)(=O)=O)c2)s1 | no
* Nc1nc(N)c2nc(-c3cccc(O)c3)c(-c3cccc(O)c3)nc2n1 | no
* O=C(Cc1ccc(/C=C/C(=O)c2ncc[nH]2)cc1)Nc1ccc(S(F)(F)(F)(F)F)cc1 | no
* O=C(c1c(F)ccc(NS(=O)(=O)N2CC[C@@H](F)C2)c1F)c1c[nH]c2ncc(-c3cnc(C4CC4)nc3)cc12 | no
* CCNC(=O)C#Cc1ccc2c(C(=Nc3ccc(CN(C)C)cc3)c3ccccc3)c(O)[nH]c2c1 | no
* CC(C)CC(=O)Nc1n[nH]c2c1CN(C(=O)C1CCN(C)CC1)C2(C)C | no
* CCn1c(-c2nonc2N)nc2c(C#CC(C)(C)O)ncc(OC[C@H]3CCCNC3)c21 | no
* CN1CCC(COc2cnc(-c3cccc(Cn4nc(-c5cccc(C#N)c5)ccc4=O)c3)nc2)CC1 | no
* CC(=O)c1c(C)c2cnc(Nc3ccc(N4CCNCC4)cn3)nc2n(C2CCCC2)c1=O | no
* Nc1c(Cl)cccc1[N+](=O)[O-] | no
* CC[C@H](Nc1ncnc2nc[nH]c12)c1nc2cccc(F)c2c(=O)n1-c1ccccc1 | no
* CC(N)C(Cc1ccccc1)c1ccc(Cl)cc1 (stereo not drawn) | no
